Reference source: ChEMBL document CHEMBL1201862

System: CAKI-1
Experiment: NCI tumour cell line growth inhibition, 48 h
Calls of active or inactive are those of the source. Rule as the data show it: active = GI50 up to about 1.1 µM and inactive = higher.
Listed compounds paired with reported GI50

Compound	GI50
CN(C)C(=O)N(CCCl)N=O	> 100 µM (inactive)
CC(=O)OC1CC[C@@]2(C)C(=CC[C@@H]3[C@@H]2CC[C@]2(C)C(OC(C)=O)[C@H](n4ccnc4)C[C@@H]32)C1 (stereo not given in full)	49.1 µM (inactive)
COc1cc([C@@H]2c3cc4c(cc3[C@@H](Nc3ccc(C(=O)N[C@H]5CCc6cc(OC)c(OC)c(OC)c6-c6ccc(SC)c(=O)cc65)cc3)[C@H]3COC(=O)[C@H]23)OCO4)cc(OC)c1O	0.132 µM (active)
N=C(N)NC(CC(=O)O)c1ccccc1 (stereo not given)	> 100 µM (inactive)
O=[N+]([O-])c1cccc2nccc(NCCN3CCOCC3)c12	2.6 µM (inactive)
